These entries and their values trace back to patent US20060069132A1.

Item-by-item account of Wheat plant response rating
- Test system: wheat
- assay.details: Test B postemergence herbicide test
- Assay type: in vivo, Triticum aestivum
- Parameters: key: 0 = no effect, 100 = complete control
- recorded.conditions: postemergence, 125 g ai/ha; visual rating, scale 0 (no effect) to 100 (complete control)

substance.smiles: CCOC(=O)c1cccc(NC(=O)c2cc(C(C)(C)C)nn2CC)c1C
Wheat plant response rating: 0

substance.smiles: CCc1nc(C(C)(C)C)sc1C(=O)Nc1cccc(C(=O)NCC(F)(F)F)c1
Wheat plant response rating: 20

substance.smiles: CC(=NO)c1cccc(NC(=O)c2cc(C(C)(C)C)nn2CCF)c1
Wheat plant response rating: 30

substance.smiles: CCNC(=O)c1ccc(OC)c(NC(=O)c2cc(C(C)(C)C)nn2CC)n1
Wheat plant response rating: 20

substance.smiles: CC(=NO)c1cccc(NC(=O)c2sc(C(C)(C)C)nc2C)c1
Wheat plant response rating: 10

----------
Parameter: Sedge, Umbrella plant response rating. Scope: all listed entries.
- System: smallflower umbrella sedge
- assay.details: Test C flooded paddy test
- Assay type: in vivo, Cyperus difformis
- recorded.conditions: 62 g ai/ha, scale 0 to 100
measured.endpoint: Sedge, Umbrella plant response rating

molecule: CCn1nc(C(C)(C)C)cc1C(=O)Nc1cccc(C(=O)N2CCOCC2)n1
readout.value: 0

molecule: C#CCNC(=O)c1cccc(NC(=O)c2nn(C(C)(C)C)nc2C)c1
readout.value: 0

molecule: CCC1=NN(C(C)(C)C)CC1C(=O)Nc1cc(C(=O)N(C)C)ccc1F (racemic)
readout.value: 20

molecule: CCNC(=O)c1ccc(OC)c(NC(=O)c2cc(C(C)(C)C)nn2CC)n1
readout.value: 0

molecule: Cc1nn(C(C)C)nc1C(=O)Nc1cccc(C(=O)N(C)C)c1
readout.value: 70

molecule: CCn1nc(C(C)(C)C)cc1C(=O)Nc1cc(C(=S)N(C)C)ccn1
readout.value: 80

----------
- Tested on: wheat
- assay.details: Test B postemergence herbicide test
- Type: in vivo, Triticum aestivum
- Design: key: 0 = no effect, 100 = complete control
- recorded.conditions: 500 g ai/ha; scale 0 to 100, 0 no effect, 100 complete control; preemergence
- Method: At the same time, plants selected from these crop and weed species and also blackgrass (Alopecurus myosuroides Huds.), wheat (Triticum aestivum L.) and wild oat (Avena fatua L.) were treated with postemergence applications of test chemicals formulated in the same manner. […] Treated plants and controls were maintained in a greenhouse for 13 to 15 days, after which time all species were compared to controls and visually evaluated. […]
Recorded Wheat plant response rating by entry

compound: Cc1nn(C(C)(C)C)nc1C(=O)Nc1cccc(C(=O)N2CC=CC2)c1 [Compound 393]
Wheat plant response rating: 100
--
compound: Cc1nn(C(C)(C)C)nc1C(=O)Nc1cc(C(=O)N(C)C)ccn1 [Compound 423]
Wheat plant response rating: 100
--
compound: CCNC(=O)c1cccc(NC(=O)c2nn(C(C)(C)C)nc2C)c1 [Compound 392]
Wheat plant response rating: 100
--
compound: CCNC(=O)c1ccc(F)c(NC(=O)c2nn(C(C)(C)C)nc2CC)c1 [Compound 362]
Wheat plant response rating: 30
--
compound: CCNC(=O)c1cccc(NC(=O)c2nn(C(C)(C)C)nc2Br)c1 [Compound 434]
Wheat plant response rating: 90
--
compound: CCN(C)C(=O)c1ccc(F)c(NC(=O)c2nn(C(C)C)nc2C)c1 [Compound 403]
Wheat plant response rating: 0
--
compound: C=CCNC(=O)c1ccc(F)c(NC(=O)c2nn(C(C)(C)C)nc2CC)c1 [Compound 383]
Wheat plant response rating: 10
--
compound: CCN(CC)C(=O)c1cccc(NC(=O)c2nn(C(C)(C)C)nc2C)n1 [Compound 440]
Wheat plant response rating: 0
--
compound: CCc1nn(C(C)(C)CC)nc1C(=O)Nc1cc(C(=O)N(C)C)ccc1F [Compound 368]
Wheat plant response rating: 10
--
compound: CCNC(=O)c1ccnc(NC(=O)c2nn(C(C)(C)C)nc2C)c1 [Compound 424]
Wheat plant response rating: 50
--
compound: CCOC(=O)c1ccc(F)c(NC(=O)c2nn(C(C)(C)CC)nc2CC)c1 [Compound 373]
Wheat plant response rating: 0
